Catalogue of variants with associated protein stability index
B1: SAT2 (parent)
chain: LTEAEGWHFFCFQGEATRKLAGK

variants of: B1; experiment: protein stability index of a GFP-peptide fusion (GPS, HEK-293T) (PSI 1-6); higher = more stable; conditions: c terminus: native;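 note: lentivirally expressed fusions sorted by FACS into six bins by GFP to DsRed ratio, PSI derived from sequencing read proportions per bin multiplied by bin number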
endpoint name: protein stability index

>>> recorded_result("LTEAEGWHFFCFQGEATFKLAGK")
1.5
>>> recorded_result("LTYAEGWHFFCFQGEATRKLAGK")
2.18
>>> recorded_result("LTEALGWHFFCFQGEATRKLAGK")
1.29
>>> recorded_result("LTEAEGWHFFCFQGEATRHLAGK")
2.58
>>> recorded_result("LKEAEGWHFFCFQGEATRKLAGK")
2.14
>>> recorded_result("LMEAEGWHFFCFQGEATRKLAGK")
2.71
>>> recorded_result("LTEAEGWHFFVFQGEATRKLAGK")
2.37
>>> recorded_result("LTEAIGWHFFCFQGEATRKLAGK")
3.25
>>> recorded_result("LTEAEGWHFFCFQGEATRKLASK")
1.8
>>> recorded_result("LTEAEGWHRFCFQGEATRKLAGK")
3.77
>>> recorded_result("LTEAEGWHFGCFQGEATRKLAGK")
4.09
>>> recorded_result("LTEAFGWHFFCFQGEATRKLAGK")
1.79
>>> recorded_result("LTEAEGWHFQCFQGEATRKLAGK")
3.61
>>> recorded_result("LDEAEGWHFFCFQGEATRKLAGK")
2.97
>>> recorded_result("LTIAEGWHFFCFQGEATRKLAGK")
3.97
>>> recorded_result("LTEAEGWHFFCFQGEATRDLAGK")
2.76
>>> recorded_result("VTEAEGWHFFCFQGEATRKLAGK")
2.22
>>> recorded_result("LTEAEGWHFFCFQGEATRKVAGK")
1.98
>>> recorded_result("LTEAEGWHFFCFQGEATRKLAIK")
1.91
>>> recorded_result("LTEAEGWHFFCFQGEATRKLAGS")
2
>>> recorded_result("LTEAEGWHFFCFQGEATRMLAGK")
1.89
>>> recorded_result("LTEAEGWHFFCFQGEATRKPAGK")
3.22
>>> recorded_result("CTEAEGWHFFCFQGEATRKLAGK")
2.48
>>> recorded_result("LTEAEGWHFWCFQGEATRKLAGK")
1.94
>>> recorded_result("LFEAEGWHFFCFQGEATRKLAGK")
1.8
>>> recorded_result("LTEAEMWHFFCFQGEATRKLAGK")
2.05
>>> recorded_result("LTEAEGWHFFCFQGYATRKLAGK")
2.69
>>> recorded_result("LTEAEGWHFFCFQGEATRKSAGK")
2.94
>>> recorded_result("LTEAEGWHFFCFQGEATRKLPGK")
1.99
>>> recorded_result("LTEAEGTHFFCFQGEATRKLAGK")
4.08
>>> recorded_result("LTEAEGWHFFCFQGEATKKLAGK")
2.8
>>> recorded_result("LTEAEGWHFFCFQGEATRPLAGK")
2.1
>>> recorded_result("LTSAEGWHFFCFQGEATRKLAGK")
1.75
>>> recorded_result("LTEAEGWHFFCFQAEATRKLAGK")
2.48
>>> recorded_result("LTEAEGWHFFCFQGEATRKLTGK")
2.71
>>> recorded_result("LTEAEGWHFFEFQGEATRKLAGK")
3.27
>>> recorded_result("LTEAEGWHFFCFQGEAVRKLAGK")
2.21
>>> recorded_result("LTEAEGWHFFCFGGEATRKLAGK")
1.61
>>> recorded_result("LTEAEGWHFFCFQGEATLKLAGK")
1.53
>>> recorded_result("LWEAEGWHFFCFQGEATRKLAGK")
1.11
